Reference for the values: patent US6737383B1

System: crabgrass
assay-remarks: Test B pre/postemergence crabgrass
Assay type: in vivo, Digitaria sanguinalis
assay-conditions: Postemergence, Rate 250 g/ha; scale 0 to 10
parameter-measured: Crabgrass plant response rating

>>> observed_value("C=C[Si](C)(C)Cn1c(=O)on(C(=O)N(c2ccc(Cl)cc2)C(C)C)c1=O")
8
>>> observed_value("CC(C)C(=O)Cn1c(=O)on(C(=O)N(c2ccc(F)cc2F)C(C)C)c1=O")
5
>>> observed_value("CC[Si](C)(C)Cn1c(=O)on(C(=O)N(c2ccc(F)cc2)C(C)C)c1=O")
5
>>> observed_value("CC(C)N(C(=O)n1oc(=O)n(CCC#N)c1=O)c1ccccc1")
1

====

System: surinam grass
assay-remarks: Test B pre/postemergence surinam grass
Type: in vivo, Brachiaria decumbens
assay-conditions: Preemergence, Rate 125 g/ha; scale 0 to 10, 0 is no effect, 10 is complete control
parameter-measured: B. signalgrass plant response rating

>>> observed_value("CCCCCCn1c(=O)on(C(=O)N(c2ccccc2)C(C)C)c1=O [Compound 558]")
0
>>> observed_value("COCn1c(=O)on(C(=O)N(c2ccccc2)C(C)C)c1=O [Compound 562]")
8
>>> observed_value("CCCCn1c(=O)on(C(=O)N(c2ccccc2)C(C)C)c1=O [Compound 556]")
7
>>> observed_value("CC(C)N(C(=O)n1oc(=O)n(CCC2OCCCO2)c1=O)c1ccc(F)cc1F [Compound 502]")
9
>>> observed_value("Cc1noc(C)c1Cn1c(=O)on(C(=O)N(c2ccc(F)cc2F)C(C)C)c1=O [Compound 510]")
7

====

Tested on: wheat
assay-remarks: Test B pre/postemergence wheat
Type: in vivo, Triticum aestivum
assay-conditions: Preemergence, Rate 125 g/ha; scale of 0 to 10 where 0 is no effect and 10 is complete control
Below, each of the compounds is paired with its reported Plant response rating, Wheat value.
parameter-measured: Plant response rating, Wheat

>>> observed_value("Cc1nc(Cl)sc1C(C)n1c(=O)on(C(=O)N(c2ccccc2)C(C)C)c1=O (stereo not shown)")
0
>>> observed_value("CC(C)N(C(=O)n1oc(=O)n(C(CF)CF)c1=O)c1ccccc1")
4
>>> observed_value("CCn1ncc(Cn2c(=O)on(C(=O)N(c3ccccc3)C(C)C)c2=O)c1Cl")
0
>>> observed_value("CC(C)N(C(=O)n1oc(=O)n(CCCCCl)c1=O)c1ccc(F)cc1")
0
>>> observed_value("CCOP(=O)(OCC)C(C)n1c(=O)on(C(=O)N(c2ccccc2)C(C)C)c1=O (stereo not shown)")
0
>>> observed_value("CC(C)N(C(=O)n1oc(=O)n(COCC[Si](C)(C)C)c1=O)c1ccc(Cl)cc1")
0
>>> observed_value("C=C(C)CCn1c(=O)on(C(=O)N(c2ccccc2)C(C)C)c1=O")
0
>>> observed_value("Cc1nc(Cl)sc1C(C)n1c(=O)on(C(=O)N(c2ccc(F)cc2)C(C)C)c1=O (stereo not shown)")
0
>>> observed_value("CC(C)N(C(=O)n1oc(=O)n(C(CF)CF)c1=O)c1ccc(F)cc1")
4
>>> observed_value("CCC=CCn1c(=O)on(C(=O)N(c2ccccc2)C(C)C)c1=O")
0

====

Below, each of the compounds is paired with its reported Cocklebur plant response rating value.
Test system: cocklebur
assay-remarks: Test B pre/postemergence cocklebur
Type: in vivo, Xanthium strumarium
assay-conditions: Rate 62 g/ha, Postemergence; scale of 0 to 10 where 0 is no effect and 10 is complete control
parameter-measured: Cocklebur plant response rating

>>> observed_value("CC(C)N(C(=O)n1oc(=O)n([C@@H](C)c2ccccc2)c1=O)c1ccccc1")
0
>>> observed_value("CC(C)N(C(=O)n1oc(=O)n(CCc2ccccc2)c1=O)c1ccc(F)cc1")
0
>>> observed_value("Cc1ccc(N(C(=O)n2oc(=O)n(C(C)C)c2=O)C(C)C)cc1")
0
>>> observed_value("Cc1nc(C)c(-n2c(=O)on(C(=O)N(c3ccccc3)C(C)C)c2=O)s1")
0
>>> observed_value("CCN(C(=O)n1oc(=O)n(N(C)C)c1=O)C1CCCCC1")
0
>>> observed_value("CC(C)N(C(=O)n1oc(=O)n(CC2CO2)c1=O)c1ccc(F)cc1 (stereo not shown)")
0
>>> observed_value("Cc1nc(Cl)sc1C(C)n1c(=O)on(C(=O)N(c2ccc(F)cc2)C(C)C)c1=O (stereo not shown)")
0
>>> observed_value("CC(C)N(C(=O)n1oc(=O)n(CC(C)(C)C)c1=O)c1ccccc1")
0
>>> observed_value("C=CCn1c(=O)on(C(=O)N(c2ccc(F)cc2)C(C)C)c1=O")
2
>>> observed_value("CCN(C(=O)n1oc(=O)n(C2CCCCCC2)c1=O)C1CCCCC1")
0
>>> observed_value("C=C[Si](C)(C)Cn1c(=O)on(C(=O)N(c2ccc(Cl)cc2)C(C)C)c1=O")
0
>>> observed_value("CC(C)N(C(=O)n1oc(=O)n(C(CF)CF)c1=O)c1ccccc1")
0
>>> observed_value("CC(C)N(C(=O)n1oc(=O)n(C(CF)CF)c1=O)c1ccc(F)cc1")
0
>>> observed_value("Cc1nc(Cl)sc1C(C)n1c(=O)on(C(=O)N(c2ccc(F)cc2F)C(C)C)c1=O (stereo not shown)")
0
>>> observed_value("CC(C)N(C(=O)n1oc(=O)n(CC2CCC2)c1=O)c1ccc(F)cc1")
0
>>> observed_value("CC(C)N(C(=O)n1oc(=O)n(C2CCCCCC2)c1=O)c1ccc(F)cc1")
0
